molecular target: UniProt P00734; experiment: Inhibition of thrombin
reported.property: K ass

{"structure.smiles": "COc1ccc2sc(-c3ccc(OCCN4CCCC4)cc3)c(Cc3ccc(CN4CCCC4)c(OC)c3)c2c1", "measured": "221 10e6 l M-1"}
{"structure.smiles": "Oc1ccc2c(Cc3ccc(CN4CCOCC4)c(Br)c3)c(-c3ccc(OCCN4CCCC4)cc3)sc2c1", "measured": "1160 10e6 l M-1"}
{"structure.smiles": "CN(C)c1cc(Cc2c(-c3ccc(OCCN4CCCC4)cc3)sc3cc(O)ccc23)ccc1CN1CCCC1", "measured": "2.31 10e6 l M-1"}
{"structure.smiles": "COC[C@@H]1CCCN1Cc1ccc(Cc2c(-c3ccc(OCCN4CCCC4)cc3)sc3cc(O)ccc23)cc1C", "measured": "353 10e6 l M-1"}

----------
molecular target: UniProt P00734; assay: Inhibition of thrombin

{"structure.smiles": "COc1cc(Cc2c(-c3ccc(OCCN4CCCC4)cc3)sc3cc(O)ccc23)ccc1CN(C)C", "K ass": "50 10e6 l M-1"}
{"structure.smiles": "Cc1cc(Cc2c(-c3ccc(OCCN4CCCC4)cc3)sc3cc(O)ccc23)ccc1CN1CCC[C@H]1CO", "K ass": "395 10e6 l M-1"}
{"structure.smiles": "COc1cc(Cc2c(-c3ccc(OCCN4CCCC4)cc3)sc3cc(NS(C)(=O)=O)ccc23)ccc1CN1CCCC1", "K ass": "2.94 10e6 l M-1"}
{"structure.smiles": "CNc1cc(Cc2c(-c3ccc(OCCN4CCCC4)cc3)sc3cc(O)ccc23)ccc1CN1CCCC1", "K ass": "126 10e6 l M-1"}
{"structure.smiles": "COc1cc(Cc2c(-c3ccc(OCCN4CCCC4)cc3)sc3ccccc23)ccc1CN1CCOCC1", "K ass": "124 10e6 l M-1"}

----------
Overview of recorded K ass for various molecules
target: Prothrombin (Homo sapiens); experiment: Inhibition of thrombin

{"structure.smiles": "Oc1ccc2c(Cc3ccc(CN4CCCC4)c(O)c3)c(-c3ccc(OCCN4CCCC4)cc3)sc2c1", "K ass": "39.1 10e6 l M-1"}
{"structure.smiles": "Cc1cc(Cc2c(-c3ccc(OCCN4CCCC4)cc3)sc3cc(O)ccc23)ccc1CN1CCCC1=O", "K ass": "525 10e6 l M-1"}
{"structure.smiles": "COc1cc(Cc2c(-c3ccc(OCCN4CCCC4)cc3)sc3cc(O)ccc23)ccc1CN1CCCC1", "K ass": "815 10e6 l M-1"}
{"structure.smiles": "COc1cc(Cc2c(-c3ccc(OCCN4CCCC4)cc3)sc3ccccc23)ccc1CN1CCCC1", "K ass": "126 10e6 l M-1"}
{"structure.smiles": "COc1cc(Cc2c(-c3ccc(OCCN4CCCC4)cc3)sc3cc(N)ccc23)ccc1CN1CCCC1", "K ass": "139 10e6 l M-1"}
{"structure.smiles": "COc1cc(Cc2c(-c3ccc(OCCN4CCCC4)cc3)sc3cc(F)ccc23)ccc1CN1CCCC1", "K ass": "23.1 10e6 l M-1"}
{"structure.smiles": "Oc1ccc2c(Cc3ccc(CN4CCCC4)cc3)c(-c3ccc(OCCN4CCCC4)cc3)sc2c1", "K ass": "81.2 10e6 l M-1"}
{"structure.smiles": "Cc1cc(Cc2c(-c3ccc(OCCN4CCCC4)cc3)sc3cc(O)ccc23)ccc1CN1CCC[C@H]1C(=O)O", "K ass": "192 10e6 l M-1"}

Numbers sourced from ChEMBL document CHEMBL1132899.
